- Test summary: Binding affinity measured on Sigma receptor type 1 from guinea pig brain membranes using [3H]pentazocine as radioligand.
pKi: −log10 of the molar value.
Endpoint name: pKi

- CC1C2Cc3ccc(O)cc3C1(C)CCN2Cc1ccccc1 (single isomer, unassigned; (+)): 9.17

###

- Test summary: Binding affinity at Sigma receptor type 2 on rat liver membranes receptor by [3H]DTG displacement.
pKi: −log10 of the molar value.
Endpoint name: pKi

• CC1C2Cc3ccc(O)cc3C1(C)CCN2Cc1ccccc1 (single isomer, unassigned; (+)) = 5.77

These measurements were taken from ChEMBL document CHEMBL1128493.
